- System: CCRF-CEM leukemia
- protocol-details: NCI-60 one-dose screen, 48 h (100 = growth as untreated, 0 = no growth, -100 = all killed)
- conditions: 10 µM
About 83,000 compounds went through this panel and 20% of them were active in at least one assay; those are over-represented in the sample as a whole.
A collection of compounds and their measured growth
Number in %, nothing else.

Known growth results, listed for orientation:
>>> print(df.to_string())
                                   compound  endpoint  value
0  COC(=O)c1ccc(C(=Nc2ccc(N(C)C(=O)CN3CCN(C)CC3)cc2)c2c(O)[nH]c3ccc(C(=O)OC)cc23)cc1    growth   12.3
1  CCCCN(CCCC)CCCNc1c2c(nc3ccc(Cl)cc13)CCCC2    growth   98.1
2  CCOC(=O)C1CCCN1C(=O)C1(NC(C)=O)CCCC1 (stereo not given)    growth   97.4
3         c1ccc(Nc2ncc3c(n2)-c2cccn2CC3)cc1    growth    102
4  Cc1ccc(S(=O)(=O)NC(CCC(=O)Nc2ccccc2)C(=O)Nc2ccccc2)cc1 (stereo not given)    growth    5.4
5                         CC1(C)NC(=S)NC1=O    growth   88.2

Request: Entry CC(C)(CNC1CCCCC1)OC(=O)c1ccccc1 has what growth?
Result: 84.7

Request: Entry COC1=C(OC)C(=O)c2ccccc2C1=O has what growth?
Result: 61.6

----------
- Test system: MOLT-4 leukemia
- protocol-details: NCI-60 one-dose screen, 48 h (100 = growth as untreated, 0 = no growth, -100 = all killed)
- conditions: 10 µM unless noted
Compounds without any hit were thinned out: in the full panel of roughly 83,000, 20% have a hit.
We label by threshold. Values of growth strictly beneath 80% are criterion met. Values of 80% and up are criterion not met.

Request: Is growth of CC([C@H]1CC=C2C3CCC4=C[C@@H](N(C)C)CC[C@]4(C)C3CC[C@@]21C)N(C)C (some centres not stated) strictly below 80%?
Result: criterion met

Request: Is growth of CCCCCCCCCCCCCCCCCC1=NCCN1CCNC(C)=O strictly below 80%?
Result: criterion met

Request: Is growth of COc1cc2ncnc(-n3ncc4cc(NC(=O)Nc5ccccc5)ccc43)c2cc1OC strictly below 80%?
Result: criterion met

Request: Is growth of COc1cc(OC)c(/C=C/c2ccc3ccccc3[n+]2C)c(OC)c1 strictly below 80%?
Result: criterion met

----------
A collection of compounds and their measured growth
- System: NCI/ADR-RES ovarian
- protocol-details: NCI-60 one-dose screen, 48 h (100 = growth as untreated, 0 = no growth, -100 = all killed)
- conditions: 10 µM unless noted
About 83,000 compounds went through this panel and 20% of them were active in at least one assay; those are over-represented in the sample as a whole. Calls of active or inactive are those of the source. How the source made its calls: active means growth percent below 10; inactive means the rest.

Request: Entry CCCCCCCCC1OC1CCCCCCCC(=O)O (stereo unspecified) has what growth?
Result: 104% (inactive)

----------
A collection of compounds and their measured growth
- Test system: SW-620 colon
- protocol-details: NCI-60 one-dose screen, 48 h (100 = growth as untreated, 0 = no growth, -100 = all killed)
- conditions: 10 µM unless noted
Compounds without any hit were thinned out: in the full panel of roughly 83,000, 20% have a hit. Activity calls are given as the source filed them. The calls were made as follows: active = growth percent below 10; inactive = the rest.

Known growth results, listed for orientation:
                                   compound                     value
0  O=C(Nc1ccc(-n2cc(-c3ccncc3)c(-c3ccc(Cl)c(O)c3)n2)cc1)c1cc(Cl)cc(Cl)c1          0.0883% (active)
1    CCOC(=O)c1ccc2n1CCCc1cnc(NC(C)=O)nc1-2           106% (inactive)
2              Br/C(=N\Nc1nn[nH]n1)c1ccccc1           102% (inactive)
3  CCC(C)[C@H](NC(=O)Nc1cc(C(F)(F)F)cc(C(F)(F)F)c1)C(=O)N[C@@H](Cc1cn(C)cn1)C(=O)OC (some centres undefined)  -58.3% [100 µM] (active)
4     CC(=O)Nc1nc(C)c(C(=O)N/N=C/c2cccs2)s1          94.2% (inactive)

Request: Entry O=C(Nc1cccc2[nH]c(C(F)(F)F)nc12)c1ccc(F)cc1 has what growth?
Result: 91.5% (inactive)

Request: Entry COC(=O)c1c[n+]([O-])ccc1OC has what growth?
Result: 109% (inactive)

Request: Entry COC(=O)C(C(=O)OC)C(Br)C(Br)C(Br)c1ccccc1 (centres undefined) has what growth?
Result: 18.6% (inactive)

Request: Entry O=C1NCCN1/N=C/c1c(Cl)nc2n1CCS2 has what growth?
Result: 103% (inactive)

Request: Entry CC(C)OCC1CO1 (centres undefined) has what growth?
Result: 96.4% (inactive)

Request: Entry COc1ccc2cn3c4ccc(O)cc4[nH]c(=O)c3c2c1 has what growth?
Result: 11.3% (inactive)

Request: Entry CCOC(=O)C1=C(C(F)(F)F)NC(=S)NC1CN1C(=O)c2ccccc2C1=O (centres undefined) has what growth?
Result: 93.1% (inactive)
